Biological target: HCMV DNA polymerase (UL54) (Human cytomegalovirus)
Assay: Enzyme assay with HCMV DNA polymerase
Type: biochemical
Details: IC50 HCMV DNA Pol, activated calf thymus DNA, [3H]dTTP
hey, just use satisfied if measured IC50 is less than 20 µM, otherwise not satisfied

# example entries with known answers
>>> print(df.to_string())
                                   molecule  assigned_category
0  O=C(O)C(OC/C=C\Cn1cc(F)c(=O)[nH]c1=O)P(=O)(O)O (stereo not shown)      not satisfied
1  Cc1cn(Cc2cn(CCOC(C(=O)O)P(=O)(O)O)nn2)c(=O)[nH]c1=O (stereo not shown)      not satisfied
2  Nc1nc2c(ncn2C/C=C\COC(C(=O)O)P(=O)(O)O)c(=O)[nH]1 (stereo not shown)          satisfied
3  O=C(O)P(=O)(O)O [PFA, phosphonoformic acid, reference compound]          satisfied
4  Nc1ccn(C/C=C\COC(C(=O)O)P(=O)(O)O)c(=O)n1 (stereo not shown)          satisfied

Determine if Nc1ncnc2c1ncn2C/C=C\COC(C(=O)O)P(=O)(O)O (stereo not shown) shows IC50 strictly lower than 20 µM. satisfied

Determine if O=c1[nH]c(=O)n([C@H]2C[C@H](O)[C@@H](COP(=O)(O)OP(=O)(O)OP(=O)(O)O)O2)cc1/C=C/Br [BVDU-TP, reference compound] shows IC50 strictly lower than 20 µM. satisfied

###

For each of the compounds below, state its pIC50.
Target: UniProtKB P04293
Sequence (P04293 whole entry): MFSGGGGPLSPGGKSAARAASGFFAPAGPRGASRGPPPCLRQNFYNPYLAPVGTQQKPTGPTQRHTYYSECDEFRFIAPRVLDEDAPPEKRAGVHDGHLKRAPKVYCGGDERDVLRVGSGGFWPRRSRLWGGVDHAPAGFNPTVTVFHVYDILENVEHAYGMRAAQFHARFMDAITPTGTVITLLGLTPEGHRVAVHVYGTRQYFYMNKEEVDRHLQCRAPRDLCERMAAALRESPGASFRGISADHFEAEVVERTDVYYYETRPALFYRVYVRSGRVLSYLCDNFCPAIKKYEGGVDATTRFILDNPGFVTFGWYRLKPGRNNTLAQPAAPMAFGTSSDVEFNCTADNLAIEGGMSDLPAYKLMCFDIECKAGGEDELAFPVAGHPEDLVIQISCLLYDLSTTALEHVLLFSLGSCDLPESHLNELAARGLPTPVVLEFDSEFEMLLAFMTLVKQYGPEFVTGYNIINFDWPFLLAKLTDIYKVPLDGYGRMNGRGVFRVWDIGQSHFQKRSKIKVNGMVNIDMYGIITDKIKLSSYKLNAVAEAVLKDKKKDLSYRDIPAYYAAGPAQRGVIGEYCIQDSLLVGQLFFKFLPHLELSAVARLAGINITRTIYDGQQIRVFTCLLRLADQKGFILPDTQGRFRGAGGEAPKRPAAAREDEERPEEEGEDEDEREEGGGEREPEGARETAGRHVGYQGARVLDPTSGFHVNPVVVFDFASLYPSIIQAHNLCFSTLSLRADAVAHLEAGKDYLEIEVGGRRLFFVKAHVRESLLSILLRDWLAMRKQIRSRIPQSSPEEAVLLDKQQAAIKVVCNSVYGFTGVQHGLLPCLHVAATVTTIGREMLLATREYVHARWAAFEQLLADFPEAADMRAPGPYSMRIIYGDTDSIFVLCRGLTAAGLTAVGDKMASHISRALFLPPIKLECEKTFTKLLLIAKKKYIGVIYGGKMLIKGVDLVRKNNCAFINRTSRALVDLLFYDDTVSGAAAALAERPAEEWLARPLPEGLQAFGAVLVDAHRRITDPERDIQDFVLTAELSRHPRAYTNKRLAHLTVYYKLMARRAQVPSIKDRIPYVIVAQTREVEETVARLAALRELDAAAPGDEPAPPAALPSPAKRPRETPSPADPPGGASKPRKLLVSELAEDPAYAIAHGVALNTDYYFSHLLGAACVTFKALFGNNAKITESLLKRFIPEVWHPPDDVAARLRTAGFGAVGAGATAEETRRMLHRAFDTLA
Assay: Enzyme assay with HSV-1 DNA polymerase
Assay type: biochemical
Numbers only, as −log10 of the molar value.

Completed entries (count: 4):
                                   compound  readout_label  value
0  Nc1nc2c(ncn2C/C=C\COC(C(=O)O)P(=O)(O)O)c(=O)[nH]1 (centres unmarked)          pIC50   5.68
1  O=C(O)P(=O)(O)O [PFA, phosphonoformic acid, reference compound]          pIC50   6.36
2  Cc1cn(Cc2ccccc2COC(C(=O)O)P(=O)(O)O)c(=O)[nH]c1=O (centres unmarked)          pIC50   5.12
3  O=C(O)C(OC/C=C\Cn1cc(F)c(=O)[nH]c1=O)P(=O)(O)O (centres unmarked)          pIC50   4.62

Reported pIC50 ( Cc1cn(C/C=C\COC(C(=O)O)P(=O)(O)O)c(=O)[nH]c1=O (centres unmarked) ) = 5.43

###

Target: HCMV DNA polymerase (UL54) (Human cytomegalovirus, UniProt P08546)
Sequence (P08546 whole entry): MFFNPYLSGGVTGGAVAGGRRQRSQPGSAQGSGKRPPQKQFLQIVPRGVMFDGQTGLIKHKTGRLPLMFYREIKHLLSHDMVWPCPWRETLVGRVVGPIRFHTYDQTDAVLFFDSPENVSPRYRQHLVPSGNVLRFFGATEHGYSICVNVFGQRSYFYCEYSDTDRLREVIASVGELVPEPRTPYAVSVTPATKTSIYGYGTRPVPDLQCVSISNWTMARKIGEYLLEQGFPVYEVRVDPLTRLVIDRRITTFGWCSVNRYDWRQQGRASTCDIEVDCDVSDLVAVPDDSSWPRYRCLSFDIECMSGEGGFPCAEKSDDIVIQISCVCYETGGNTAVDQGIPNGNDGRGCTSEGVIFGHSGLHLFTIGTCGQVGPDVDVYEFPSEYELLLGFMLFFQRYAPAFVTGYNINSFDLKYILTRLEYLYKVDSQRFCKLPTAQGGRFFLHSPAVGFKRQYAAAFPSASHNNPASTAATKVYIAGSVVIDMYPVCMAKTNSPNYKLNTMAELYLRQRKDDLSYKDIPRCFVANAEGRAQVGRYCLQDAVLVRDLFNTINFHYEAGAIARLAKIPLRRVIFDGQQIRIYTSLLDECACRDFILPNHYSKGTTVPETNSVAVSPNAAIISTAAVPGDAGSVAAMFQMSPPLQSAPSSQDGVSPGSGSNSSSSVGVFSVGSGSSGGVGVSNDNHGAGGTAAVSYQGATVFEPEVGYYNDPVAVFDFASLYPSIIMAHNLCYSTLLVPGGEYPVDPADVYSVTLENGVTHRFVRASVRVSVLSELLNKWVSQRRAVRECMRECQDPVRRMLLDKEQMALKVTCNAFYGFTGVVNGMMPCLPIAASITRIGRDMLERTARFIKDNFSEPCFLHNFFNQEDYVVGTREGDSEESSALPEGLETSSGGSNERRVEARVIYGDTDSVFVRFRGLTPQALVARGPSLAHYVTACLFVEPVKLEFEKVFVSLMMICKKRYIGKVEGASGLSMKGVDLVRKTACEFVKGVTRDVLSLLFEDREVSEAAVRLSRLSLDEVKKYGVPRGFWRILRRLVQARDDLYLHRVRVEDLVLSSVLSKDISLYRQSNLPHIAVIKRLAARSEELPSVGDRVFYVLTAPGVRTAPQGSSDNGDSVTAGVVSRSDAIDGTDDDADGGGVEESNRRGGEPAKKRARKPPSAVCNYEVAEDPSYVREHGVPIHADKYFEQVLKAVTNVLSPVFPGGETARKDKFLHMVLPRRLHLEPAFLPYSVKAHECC
Experiment: Enzyme assay with HCMV DNA polymerase
Type: biochemical
Details: read-out: IC50 HCMV DNA Pol; activated calf thymus DNA, [3H]dTTP
Readout Label: pIC50
Numbers only, as −log10 of the molar value.

Completed entries (count: 4):
                                   molecule  value
0  Cc1cn(C[C@H]2CC=CC[C@H]2COC(C(=O)O)P(=O)(O)O)c(=O)[nH]c1=O (relative stereo)   5.52
1  Cc1cn(C[C@H]2CCC[C@H]2COC(C(=O)O)P(=O)(O)O)c(=O)[nH]c1=O (relative stereo)   4.40
2  Cc1cn(C[C@H]2C[C@H]2COC(C(=O)O)P(=O)(O)O)c(=O)[nH]c1=O (relative stereo)   5.34
3  Cc1cn(C[C@H]2CCCC[C@H]2COC(C(=O)O)P(=O)(O)O)c(=O)[nH]c1=O (relative stereo)   5.40

Reported pIC50 ( O=C(O)C(OCCCCn1cc(F)c(=O)[nH]c1=O)P(=O)(O)O (centres unmarked) ) = 5.03
